# System: ABCA1
# TEST_SUMMARY: Increase of ABCA1 in THP-1 cell (membrane fraction, SDS-PAGE and immunoblotting)
# Type: cell-based, human
# ASSAY_SETUP: PMA-differentiated THP-1 macrophages, 24 h culture with compound; relative to cells treated with probucol spiroquinone (=100)
MEASUREMENT_KIND: ABCA1 expression level (relative ratio %)
Please reply with the bare figure in % and do not write the unit itself.

Use these answered entries as a reference point.
{"columns": ["MOLECULE", "TARGET_ENTITY", "UNIT_DESCRIPTOR", "VALUE"],
 "data": [
  ["CC(C)(C)C1=CC2(C=C(C(C)(C)C)C1=O)SC1(CCCC1)SC21C=C(C(C)(C)C)C(=O)C(C(C)(C)C)=C1", "ABCA1", "%", 309],
  ["CC1(CCC(=O)O)SC2(C=C(C(C)(C)C)C(=O)C(C(C)(C)C)=C2)C2(C=C(C(C)(C)C)C(=O)C(C(C)(C)C)=C2)S1", "ABCA1", "%", 238],
  ["CCCC1(C)SC2(C=C(C(C)(C)C)C(=O)C(C(C)(C)C)=C2)C2(C=C(C(C)(C)C)C(=O)C(C(C)(C)C)=C2)S1", "ABCA1", "%", 176]
]}

Please fill in: ABCA1 expression level (relative ratio %) reported for CC1(C)SC2(C=C(C(C)(C)C)C(=O)C(C(C)(C)C)=C2)C2(C=C(C(C)(C)C)C(=O)C(C(C)(C)C)=C2)S1 [Probucol spiroquinone, reference compound] = 100
